Reported combination Emax values for a set of molecules
- Test system: SK-N-FI (Neuroblastoma)
- method: combination Emax (second highest fraction inhibited in the dose matrix, 72 h); higher = more inhibition; extreme values may be limits of the assay
Enter a number only.

# annotated cases, reported combination Emax shown
molecule	assayed_target	combination Emax
Cc1cc2ncnn2cc1Nc1ncc2c(n1)n(C1CCOCC1)c(=O)n2C [AZD7648] + CN(C)CCCOc1ccc(-c2ccc3ncc4c(c3c2)n(C2CCOCC2)c(=O)n4C)cn1 [AZD0156] (first compound max 10 µM, 7x7, partner max 1 µM)	SK-N-FI (Neuroblastoma)	0.353
Cc1c2c(nn1C)CSCc1cc(n(C)n1)CSc1cc(c3ccccc3c1)OCCCc1c(C(=O)O)n(C)c3c-2c(Cl)ccc13 [AZD5991] + C[C@@H](Nc1cc(F)cc(F)c1)c1cc(C(=O)N(C)C)cc2c(=O)cc(N3CCOCC3)oc12 [AZD8186] (first compound max 1 µM, 7x7, partner max 3 µM)	SK-N-FI (Neuroblastoma)	0.565

Req: combination Emax for CN(CCO)CC[C@H](CSc1ccccc1)Nc1ccc(S(=O)(=O)NC(=O)c2ccc(N3CCC([C@@H](O)c4ccccc4-c4ccc(Cl)cc4)CC3)cc2)cc1S(=O)(=O)C(F)(F)F [AZD4320] + CCN(CCO)CCCOc1ccc2c(Nc3cc(CC(=O)Nc4cccc(F)c4)[nH]n3)ncnc2c1 [AZD2811] (first compound max 1 µM, 7x7, partner max 1 µM) ?
Resp: 0.206
